# Target: Peroxisome proliferator-activated receptor alpha (Homo sapiens)
# Sequence (Q07869 whole entry): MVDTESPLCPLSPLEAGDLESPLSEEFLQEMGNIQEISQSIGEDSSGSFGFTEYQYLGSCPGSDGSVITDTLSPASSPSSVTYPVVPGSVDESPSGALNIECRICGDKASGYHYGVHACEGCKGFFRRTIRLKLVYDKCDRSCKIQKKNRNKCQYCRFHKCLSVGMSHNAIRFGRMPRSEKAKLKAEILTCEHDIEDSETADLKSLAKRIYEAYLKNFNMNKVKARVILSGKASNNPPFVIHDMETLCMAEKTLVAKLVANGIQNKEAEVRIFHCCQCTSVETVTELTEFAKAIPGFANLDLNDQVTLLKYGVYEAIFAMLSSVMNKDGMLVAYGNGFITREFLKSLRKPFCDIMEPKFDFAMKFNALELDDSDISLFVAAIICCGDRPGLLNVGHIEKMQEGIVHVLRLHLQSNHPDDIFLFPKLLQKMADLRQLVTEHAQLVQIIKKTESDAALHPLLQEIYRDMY
# Procedure Text: Binding affinity to PPARalpha by fluorescence polarization assay

Structure As Smiles: Cc1oc(-c2ccccc2)nc1CCOc1ccc(Cc2nn(-c3ccccc3)cc2C(=O)O)cc1
Op: =
IC50 / nM: 2170
//
Structure As Smiles: Cc1oc(-c2ccccc2)nc1CCOc1ccc(Cc2nn(-c3ccccc3)nc2CC(=O)O)cc1
Op: =
IC50 / nM: 54
//
Structure As Smiles: Cc1oc(-c2ccccc2)nc1CCOc1ccc(Cc2cn(C)cc2C(=O)O)cc1
Op: >
IC50 / nM: 10000
//
Structure As Smiles: Cc1oc(-c2ccccc2)nc1CCOc1cccc(Cc2nn(-c3ccccc3)cc2C(=O)O)c1
Op: =
IC50 / nM: 70
//
Structure As Smiles: Cc1oc(-c2ccccc2)nc1CCOc1ccc(Cc2cn(-c3ccccc3)cc2C(=O)O)cc1
Op: =
IC50 / nM: 890
//
Structure As Smiles: Cc1oc(-c2ccccc2)nc1CCOc1ccc(-c2nn(-c3ccccc3)nc2C(=O)O)cc1
Op: >
IC50 / nM: 50000
//
Structure As Smiles: Cc1oc(-c2ccccc2)nc1CCOc1ccc(Cc2nnn(-c3ccccc3)c2C(=O)O)cc1
Op: >
IC50 / nM: 7500
//
Structure As Smiles: Cc1oc(-c2ccccc2)nc1CCOc1cccc(Cc2cn(C)cc2C(=O)O)c1
Op: =
IC50 / nM: 5920
//
Structure As Smiles: Cc1oc(-c2ccccc2)nc1CCOc1cccc(-c2nn(-c3ccccc3)nc2CC(=O)O)c1
Op: =
IC50 / nM: 280
